assay: Mouse pharmacokinetics, single IV or PO dose, plasma LC/MS/MS; type: in vivo; details: mouse, plasma; CD1 mice, PO 10 mg/kg, suspension in 30% SBEβCD in water; read-out: PK-Mouse PO AUC last
// reported AUC(0-t) for each item listed
Express your answer in ng·h/mL, writing the number without its unit.

[[record]]
compound = "Cc1cc(C(C)Nc2ccc(F)cc2C(=O)O)c2nc(N3CCC(C)(C)CC3)n(C)c(=O)c2c1 (single isomer, unassigned) [Example 29]"
reported_endpoint = "AUC(0-t)"
unit_of_measurement = "ng·h/mL"
quantitative_result = 10700


Continue with the next compound.
For record CC(Nc1ccccc1C(=O)O)c1cc(F)cc2c(=O)n(C)c(N3CCN(CC(F)(F)F)CC3)nc12 (single isomer, unassigned) [Example 35] the listed AUC(0-t) is 4520

Hey, just so you know, these numbers are from patent US20260242398A1.
